Test system: H1299
Test: 2D cell proliferation assay (Alamar Blue), H1299
Assay type: cell-based, human
Details: Homo sapiens, NCI-H1299, 72 h
MEASURED_PROPERTY: IC50

LINE_NOTATION	MEASURED_VALUE
C#Cc1cccc(Nc2ncnc3cc(OCCOC)c(OCCOC)cc23)c1	> 10 µM

----------
Test system: HCC827
Assay: 3D cell proliferation assay (soft agar), HCC827
Format: cell-based, human
Settings: Homo sapiens, 3D soft agar

LINE_NOTATION	IC50
COc1ccc(-c2ccc3cc(C(=O)O)ccc3c2)cc1C12CC3CC(CC(C3)C1)C2	7.2 µM

Taken from patent US20160113895A1.
